- study target: mCX3CR1 (Mus musculus)
- Construct: stably expresses a Ca2+ sensitive photo-protein
- measurement notes: Ga16 assay, CX3CR1 agonism, Ca2+ sensitive photo-protein readout (FLIPRTETRA)
- test settings: mouse CX3CR1 cell line
pEC50: −log10 of the molar value.
measured quantity: pEC50

[
  {
    "molecule": "CC1CCCC1(CNC(=O)c1cc2c(s1)CCCCCC2)CN(C)C (single isomer, unassigned) [Example 61]",
    "study target": "mCX3CR1 (Mus musculus)",
    "obs value": 4.47
  }
]

a = O=C(NCC1(CN2CCC(O)C2)CCC1)c1cc2c(s1)CCCCCC2 (stereo not shown)
b = CC(C)OC1CCCN(CC2(CNC(=O)c3cc4c(s3)CCCCCC4)CCC2)C1 (stereo not shown)
Short answer wanted: higher pEC50, a or b ? # respond with the chosen item's label a

* * *

- study target: mCX3CR1 (Mus musculus)
- Construct: stably expresses a Ca2+ sensitive photo-protein
- measurement notes: Ga16 assay, CX3CR1 agonism, Ca2+ sensitive photo-protein readout (FLIPRTETRA)
- test settings: mouse CX3CR1 cell line
pEC50: −log10 of the molar value.
measured quantity: pEC50

Recorded pEC50, per entry:
[
  {
    "compound": "O=C(NCC1(CN2CCCCC2)CCCC1)c1cc2c(s1)CCCCCC2",
    "study target": "mCX3CR1 (Mus musculus)",
    "obs value": 4.62
  },
  {
    "compound": "CN(C)CC1(CNC(=O)c2cc3c(s2)CCCCCC3)CCCOC1 (stereo not drawn)",
    "study target": "mCX3CR1 (Mus musculus)",
    "obs value": 4.82
  },
  {
    "compound": "CCC(CC)(CNC(=O)c1cc2c(s1)CCCCCC2)CN1CCCC1",
    "study target": "mCX3CR1 (Mus musculus)",
    "obs value": 4.93
  }
]

I = CN(C)CC1(CNC(=O)c2ccc3c(c2)CCCCCC3)CCCC1
II = CC(CNC(=O)c1cc2c(s1)CCCCCC2)CN(C)C (stereo not drawn)
III = O=C(NCC1(CN2CCC(O)C2)CCCC1)c1cc2c(s1)CCCCCC2 (single isomer, unassigned) [Example 63]
Ordering criterion: pEC50; begin with the maximum. Reply: labels, ordered per the request. III, I, II
(III: 4.87, I: 4.35, II: 4.12)

* * *

- study target: mCX3CR1 (Mus musculus)
- Construct: stably expresses a Ca2+ sensitive photo-protein
- Sequence (Q9Z0D9 1-354): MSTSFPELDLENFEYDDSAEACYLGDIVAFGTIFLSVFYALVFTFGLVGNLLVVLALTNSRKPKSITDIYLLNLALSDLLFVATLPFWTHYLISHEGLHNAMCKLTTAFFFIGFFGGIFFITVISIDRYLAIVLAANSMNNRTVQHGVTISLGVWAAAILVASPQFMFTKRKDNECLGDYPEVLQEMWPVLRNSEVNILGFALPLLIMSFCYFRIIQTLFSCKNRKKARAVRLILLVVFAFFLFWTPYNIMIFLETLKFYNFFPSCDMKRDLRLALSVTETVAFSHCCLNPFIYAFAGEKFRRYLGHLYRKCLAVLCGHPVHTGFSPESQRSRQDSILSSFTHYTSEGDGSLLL
- measurement notes: Ga16 assay, CX3CR1 agonism, Ca2+ sensitive photo-protein readout (FLIPRTETRA)
- test settings: mouse CX3CR1 cell line
pEC50: −log10 of the molar value.
measured quantity: pEC50

Recorded pEC50, per entry:
[
  {
    "molecule": "CN(CCO)CC1(CNC(=O)c2cc3c(s2)CCCCCC3)CCCC1",
    "study target": "mCX3CR1 (Mus musculus)",
    "measured quantity": "pEC50",
    "obs value": 4.74
  },
  {
    "molecule": "CN(C)CC1(CNC(=O)c2cc3c(s2)CCCCCC3)CCOC1 (centres unmarked)",
    "study target": "mCX3CR1 (Mus musculus)",
    "measured quantity": "pEC50",
    "obs value": 4.80
  },
  {
    "molecule": "O=C(NCC1(CN2CCCC2)CC(F)(F)C1)c1cc2c(s1)CCCCCC2",
    "study target": "mCX3CR1 (Mus musculus)",
    "measured quantity": "pEC50",
    "obs value": 4.52
  }
]

P = O=C(NCC1(CN2CCCC2)CCC1)c1cc2c(s1)CCCCCC2
Q = CC(C)(CNC(=O)c1cc2c(s1)CCCCCC2)CN1CCCC(O)C1 (centres unmarked)
Short answer wanted: higher pEC50, P or Q ? # respond with the chosen item's label P

These data points were gathered from patent US12258337B2.
